System: LG0703-F948-PDC complex spheroid viability
Test: Anticancer human tumor LG0703-F948-PDC patient-derived lung adenocarcinoma cell line growth inhibition [RAS]
Conditions: second compound 0.00949 µM; first compound 0.01 µM; active compounds read low
assay.readout: viability, T/C (%)
One number for each entry, in %.

Consider the following illustrative entries.
{"compound": "CC(C)n1nc(-c2ccc3oc(N)nc3c2)c2c(N)ncnc21 + CCn1c(-c2cc(N3CCN(C)CC3)cnc2C(C)OC)c2c3cc(ccc31)-c1csc(n1)CC(NC(=O)C1CC1C)C(=O)N1CCCC(N1)C(=O)OCC(C)(C)C2", "viability, T/C / %": 6.99}
{"compound": "C=CC(=O)N1CCN(c2nc(OCC3CCCN3C)nc3c(F)c(-c4nc(N)cc(C)c4C(F)(F)F)c(Cl)cc23)C(C)C1 (centres undefined) + CCn1c(-c2cc(N3CCN(C)CC3)cnc2C(C)OC)c2c3cc(ccc31)-c1csc(n1)CC(NC(=O)C1CC1C)C(=O)N1CCCC(N1)C(=O)OCC(C)(C)C2", "viability, T/C / %": 26.1}
{"compound": "CC(C)n1nc(-c2ccc3oc(N)nc3c2)c2c(N)ncnc21 + CCn1c(-c2cccnc2C(C)OC)c2c3cc(ccc31)N1CCOC(CC(NC(=O)C(C(C)C)N(C)C(=O)C3(F)CCN(C(=O)C#CC(C)(C)N(C)C)CC3)C(=O)N3CCCC(N3)C(=O)OCC(C)(C)C2)C1", "viability, T/C / %": 48.2}

Could you now look at the following compound, please?
I'd like to know its viability, T/C. The compound in question is CCN1CCN(Cc2ccc(Nc3ncc(F)c(-c4cc(F)c5nc(C)n(C(C)C)c5c4)n3)nc2)CC1 + CCn1c(-c2cccnc2C(C)OC)c2c3cc(ccc31)N1CCOC(CC(NC(=O)C(C(C)C)N(C)C(=O)C3(F)CCN(C(=O)C#CC(C)(C)N(C)C)CC3)C(=O)N3CCCC(N3)C(=O)OCC(C)(C)C2)C1
97.2

----------
Test system: LG0703-F948-PDC complex spheroid viability
Experiment: Anticancer human tumor LG0703-F948-PDC cell line growth inhibition [RAS];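 also: spheroids exposed to agents for 7 days; 100% = DMSO vehicle wells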
Conditions: second compound 0.0949 µM; first compound 0.1 µM; active compounds read low
assay.readout: viability, T/C (%)
Answers are plain numbers, in %.

{"molecule": "CC(C)NCC(C(=O)N1CCN(c2ncnc3c2C(C)CC3O)CC1)c1ccc(Cl)cc1 (configuration not stated) + CCn1c(-c2cccnc2C(C)OC)c2c3cc(ccc31)N1CCOC(CC(NC(=O)C(C(C)C)N(C)C(=O)C3(F)CCN(C(=O)C#CC(C)(C)N(C)C)CC3)C(=O)N3CCCC(N3)C(=O)OCC(C)(C)C2)C1", "system.under.test": "LG0703-F948-PDC complex spheroid viability", "viability, T/C [%]": 66}

Could you now look at the following molecule, please?
I'd like to know its viability, T/C. The molecule in question is CC(C)n1nc(-c2ccc3oc(N)nc3c2)c2c(N)ncnc21 + CCn1c(-c2cc(N3CCN(C)CC3)cnc2C(C)OC)c2c3cc(ccc31)-c1csc(n1)CC(NC(=O)C1CC1C)C(=O)N1CCCC(N1)C(=O)OCC(C)(C)C2
1.05

----------
Provide the recorded viability, T/C for the entries that follow.
Tested on: LG0703-F948-PDC complex spheroid viability
Test: Anticancer human tumor LG0703-F948-PDC cell line growth inhibition [RAS];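 also: spheroids exposed to agents for 7 days; 100% = DMSO vehicle wells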
Conditions: second compound 0.000949 µM; first compound 1 µM; active compounds read low
Numbers only, in %.

{"compound": "CCN1CCN(Cc2ccc(Nc3ncc(F)c(-c4cc(F)c5nc(C)n(C(C)C)c5c4)n3)nc2)CC1 + CCn1c(-c2cc(N3CCN(C)CC3)cnc2C(C)OC)c2c3cc(ccc31)-c1csc(n1)CC(NC(=O)C1CC1C)C(=O)N1CCCC(N1)C(=O)OCC(C)(C)C2", "data.value": 52}
{"compound": "O=C(c1ccc(F)c(F)c1Nc1ccc(I)cc1F)N1CC(O)([C@@H]2CCCCN2)C1 + CCn1c(-c2cccnc2C(C)OC)c2c3cc(ccc31)N1CCOC(CC(NC(=O)C(C(C)C)N(C)C(=O)C3(F)CCN(C(=O)C#CC(C)(C)N(C)C)CC3)C(=O)N3CCCC(N3)C(=O)OCC(C)(C)C2)C1", "data.value": 28.2}
{"compound": "C=CC(=O)N1CCN(c2nc(OCC3CCCN3C)nc3c(F)c(-c4nc(N)cc(C)c4C(F)(F)F)c(Cl)cc23)C(C)C1 (centres undefined) + CCn1c(-c2cccnc2C(C)OC)c2c3cc(ccc31)N1CCOC(CC(NC(=O)C(C(C)C)N(C)C(=O)C3(F)CCN(C(=O)C#CC(C)(C)N(C)C)CC3)C(=O)N3CCCC(N3)C(=O)OCC(C)(C)C2)C1", "data.value": 116}

I'd like to know its viability, T/C. The compound in question is CCC(CC)c1cc(NC2CCC(N)C2)n2nccc2n1 (centres undefined) + CCn1c(-c2cccnc2C(C)OC)c2c3cc(ccc31)N1CCOC(CC(NC(=O)C(C(C)C)N(C)C(=O)C3(F)CCN(C(=O)C#CC(C)(C)N(C)C)CC3)C(=O)N3CCCC(N3)C(=O)OCC(C)(C)C2)C1
54
